Hi there, I'd appreciate the recorded EC50 for every entry that follows.
- study_system: alpha2B receptor (Homo sapiens, UniProt P18089)
- Construct: expressed in transfected cells; host or cells: NIH-3T3 cells
- Sequence (P18089 whole entry): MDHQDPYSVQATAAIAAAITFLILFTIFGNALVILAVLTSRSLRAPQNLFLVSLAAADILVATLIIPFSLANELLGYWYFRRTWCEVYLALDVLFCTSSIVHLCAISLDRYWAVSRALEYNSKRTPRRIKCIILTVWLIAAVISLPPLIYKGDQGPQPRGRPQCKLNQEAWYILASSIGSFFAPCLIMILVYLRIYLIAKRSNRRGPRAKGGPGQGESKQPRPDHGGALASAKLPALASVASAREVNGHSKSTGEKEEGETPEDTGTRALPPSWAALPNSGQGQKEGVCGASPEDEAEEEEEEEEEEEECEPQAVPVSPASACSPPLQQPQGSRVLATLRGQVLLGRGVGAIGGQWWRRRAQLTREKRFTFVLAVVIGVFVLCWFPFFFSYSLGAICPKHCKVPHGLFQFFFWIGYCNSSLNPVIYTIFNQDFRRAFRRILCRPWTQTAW
- protocol_details: Receptor Selection and Amplification Technology (RSAT) assay, Alpha 2B
- Format: cell-based
- conditions: RSAT, transfected NIH-3T3 cells with Gq/i5; not active = at concentrations less than 10 micromolar; read-out: Alpha 2B EC50

# compound, quantity_kind, test_result
data = [
    ("O=C(NCCF)NC(Cc1ccccc1)c1ccc(O)cc1 (stereo not shown)", "EC50", "146 nM"),
    ("Cc1cccc(C(Cc2ccccn2)NC(=O)NCCF)c1 (stereo not shown)", "EC50", "135 nM"),
    ("O=C(NCCF)NC(Cc1ccccc1)c1ccc(Cl)cc1 (stereo not shown)", "EC50", "177 nM"),
    ("O=C(NCCF)NC(Cc1ccc(F)cc1)c1cccnc1 (stereo not shown)", "EC50", "2780 nM"),
    ("O=C(NCCF)NC(Cc1ccccc1)c1ccc(F)cc1 (stereo not shown)", "EC50", "299 nM"),
]

Need EC50 for each of these compounds.
1. O=C(NCCF)NC(Cc1ccccc1F)c1ccncc1 (stereo not shown)
2. Cc1cccc(C(Cc2ccccc2F)NC(=O)NCCF)c1 (stereo not shown)
3. Cc1cccc(C(Cc2ccccc2)NC(=O)NCCF)c1 (stereo not shown) [drawing 72]
4. O=C(NCCF)NC(Cc1ccccc1F)c1ccccc1 (stereo not shown)
5. COc1ccccc1C(Cc1ccccc1)NC(=O)NCCF (stereo not shown)
6. O=C(NCCF)NC(Cc1ccccc1F)c1cccnc1 (stereo not shown)
7. O=C(NCCF)NC(Cc1ccc(F)c(F)c1)c1ccncc1 (stereo not shown)

// result
1: 2120 nM; 2: 13.8 nM; 3: 29.8 nM; 4: 12.9 nM; 5: 51.2 nM; 6: 747 nM; 7: 3620 nM

Give me EC50 for each of these compounds, listed below.
1. O=C(NCCF)NC(Cc1ccncc1)c1cccc(Cl)c1 (stereo not shown)
2. Cc1cccc(C(Cc2ccsc2)NC(=O)NCCF)c1 (stereo not shown)
3. O=C(NCCF)NC(Cc1ccccc1)c1cccc(Br)c1 (stereo not shown)
4. Cc1cccc(C(Cc2cccc(F)c2F)NC(=O)NCCF)c1 (stereo not shown)
5. O=C(NCCF)NC(Cc1ccccc1Cl)c1ccccc1 (stereo not shown)

// result
1. 30.7 nM
2. 63.4 nM
3. 173 nM
4. 20.5 nM
5. 606 nM

Kindly give each listed record's EC50.
1. O=C(NCCF)NC(Cc1ccccc1)C1CCCC1 (stereo not shown)
2. Cc1cccc(CC(NC(=O)NCCF)c2cccc(Cl)c2)c1 (stereo not shown)
3. O=C(NCCF)NC(Cc1ccc(F)cc1)c1ccccc1 (stereo not shown)
4. Cc1ccccc1CC(NC(=O)NCCF)c1cccc(Cl)c1 (stereo not shown)
5. O=C(NCCF)NC(Cc1ccccc1)C1CCCCC1 (stereo not shown)
6. O=C(NCCF)NC(Cc1ccccc1)c1ccco1 (stereo not shown)
7. Cc1cccc(C(Cc2cccs2)NC(=O)NCCF)c1 (stereo not shown)

// result
1. 378 nM
2. 5.99 nM
3. 51.3 nM
4. 26.8 nM
5. 640 nM
6. 513 nM
7. 37 nM

---

Kindly supply the reported EC50 values for the records listed here.
- study_system: alpha2C receptor (Homo sapiens)
- Construct: expressed in transfected cells; host or cells: NIH-3T3 cells
- Sequence (P18825 1-462): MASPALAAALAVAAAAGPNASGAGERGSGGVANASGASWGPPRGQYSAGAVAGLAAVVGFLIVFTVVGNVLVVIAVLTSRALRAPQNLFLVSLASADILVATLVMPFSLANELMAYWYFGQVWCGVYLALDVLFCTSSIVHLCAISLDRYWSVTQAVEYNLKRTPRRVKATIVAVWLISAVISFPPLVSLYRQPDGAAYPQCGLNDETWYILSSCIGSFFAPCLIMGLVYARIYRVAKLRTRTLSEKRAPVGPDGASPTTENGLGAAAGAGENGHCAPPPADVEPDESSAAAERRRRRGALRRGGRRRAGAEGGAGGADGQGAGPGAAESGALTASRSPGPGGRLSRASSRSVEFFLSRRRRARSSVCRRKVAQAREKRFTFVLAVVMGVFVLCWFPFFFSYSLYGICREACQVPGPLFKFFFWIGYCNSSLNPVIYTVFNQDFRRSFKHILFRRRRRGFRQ
- protocol_details: Receptor Selection and Amplification Technology (RSAT) assay, Alpha 2C
- Assay type: cell-based
- conditions: RSAT, transfected NIH-3T3 cells with Gq/i5; not active = at concentrations less than 10 micromolar; read-out: Alpha 2C EC50
Quote the value and follow it with the unit of measurement.

Each compound below has a reported value. Please supply its EC50.
1. Cc1ccccc1CC(NC(=O)NCCF)c1cccc(Cl)c1 (stereo not drawn)
2. COc1ccccc1C(Cc1ccccc1)NC(=O)NCCF (stereo not drawn)
3. O=C(NCCF)NC(Cc1ccccc1)c1ccccc1Cl (stereo not drawn)

// result
1. 787 nM
2. 78.9 nM
3. 700 nM

Data credit: patent US7709507B2
